This collection of values is drawn from PubChem BioAssay AID1159580.

# PROTOCOL SUMMARY: chemical genetic growth profiling, strain panel (AID 1159580);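 also: tested at 20 µM; growth read once vehicle control cultures reached saturation at 30 °C; 1 = growth at the plate median or of vehicle wells; lower values mean less growth of the strain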
# EXPERIMENTAL CONDITIONS: S. cerevisiae deletion strains, growth OD, locus YDR001C, strain nth1, hits give low values
The whole screen tested about 5,500 compounds, of which about 2,000 (36%) were called active. Not shown: some 18% with an inconclusive outcome. The list shows a part of the results.
QUANTITY NAME: normalized growth

{"MOLECULE": "COC1C(O)C(O[C@H]2CC[C@]3(C=O)C4C(CC[C@]3(O)C2)[C@@]2(O)CC[C@H](C3=CC(=O)OC3)[C@@]2(C)C[C@H]4OC(C)=O)OC(C)C1OC(C)=O (some centres not stated)", "QUANTITATIVE RESULT": 1.02}
{"MOLECULE": "COP(N)(=O)SC (configuration not stated)", "QUANTITATIVE RESULT": 0.994}
{"MOLECULE": "COC1CC(O[C@H]2CC[C@]3(C=O)C4CC[C@]5(C)C(C6=CC(=O)OC6)CC[C@]5(O)C4CC[C@]3(O)C2)OC(C)C1O (some centres not stated)", "QUANTITATIVE RESULT": 0.955}
{"MOLECULE": "CO[C@H]1[C@@H](O)[C@@H](C)O[C@H](O[C@H]2CCC3(C)C4CCC5(C)[C@@H](C6=CC(=O)OC6)CC[C@]5(O)[C@@H]4CC[C@]3(O)C2)[C@@H]1O (some centres not stated)", "QUANTITATIVE RESULT": 1.02}
{"MOLECULE": "C=CCSSCC=C", "QUANTITATIVE RESULT": 1.04}
{"MOLECULE": "CC(C)(C)NCC(O)COc1cccc2c1C[C@H](O)[C@H](O)C2 (some centres not stated)", "QUANTITATIVE RESULT": 1.01}
{"MOLECULE": "CSc1nc(NC(C)C)nc(NC(C)C)n1", "QUANTITATIVE RESULT": 0.979}
{"MOLECULE": "C[C@H]1O[C@@H](O[C@H]2[C@@H](O)C[C@H](O[C@H]3[C@@H](O)C[C@H](O[C@H]4CC[C@]5(C)C6CC[C@]7(C)[C@@H](C8=CC(=O)OC8)CC[C@]7(O)C6CC[C@@H]5C4)O[C@@H]3C)O[C@@H]2C)C[C@H](O)[C@@H]1O (some centres not stated)", "QUANTITATIVE RESULT": 0.968}
{"MOLECULE": "C[C@@H]1O[C@@H](O[C@H]2CC[C@]3(C=O)C4CC[C@]5(C)[C@@H](C6=CC(=O)OC6)CC[C@]5(O)C4CC[C@]3(O)C2)[C@H](O)[C@H](O)[C@H]1O (some centres not stated)", "QUANTITATIVE RESULT": 1}
{"MOLECULE": "O=c1c(-c2ccc(O)cc2)coc2c(C3O[C@H](CO)[C@@H](O)[C@H](O)[C@H]3O)c(O)ccc12 (some centres not stated)", "QUANTITATIVE RESULT": 0.978}
{"MOLECULE": "CC1(C)S[C@@H]2[C@H](NC(=O)[C@@H](N)c3ccc(O)cc3)C(=O)N2[C@H]1C(=O)O", "QUANTITATIVE RESULT": 0.964}
{"MOLECULE": "CC1(C)[C@@H]2CC[C@@]1(C)C(=O)C2", "QUANTITATIVE RESULT": 1.01}
{"MOLECULE": "O=c1c2cc(O)c(O)cc2oc2cc(O)c(C3O[C@H](CO)[C@H](O)[C@@H](O)[C@H]3O)c(O)c12 (some centres not stated)", "QUANTITATIVE RESULT": 1.02}
{"MOLECULE": "O=C(CCCN1CCC2(CC1)C(=O)NCN2c1ccccc1)c1ccc(F)cc1", "QUANTITATIVE RESULT": 0.979}
{"MOLECULE": "CN(C)C(=O)C(CCN1CCC(O)(c2ccc(Cl)cc2)CC1)(c1ccccc1)c1ccccc1", "QUANTITATIVE RESULT": 1}
{"MOLECULE": "C=CCSC[C@@H](N)C(=O)O", "QUANTITATIVE RESULT": 0.986}
{"MOLECULE": "Cc1cc(N)c2ccccc2[n+]1CCCCCCCCCC[n+]1c(C)cc(N)c2ccccc21", "QUANTITATIVE RESULT": 0.0643}
